Measured pIC50 values are reported for all entries that follow.
- EXPERIMENTAL_SYSTEM: KRAS G12D (Homo sapiens, UniProt P01116, G12D)
- Sequence (P01116 1-169 isoform P01116-2 G12D): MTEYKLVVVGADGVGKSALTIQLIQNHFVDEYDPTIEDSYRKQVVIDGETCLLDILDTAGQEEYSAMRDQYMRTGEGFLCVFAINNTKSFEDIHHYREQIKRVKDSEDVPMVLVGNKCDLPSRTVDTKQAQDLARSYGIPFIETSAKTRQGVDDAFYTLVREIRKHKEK
- METHOD_NOTES: In-vitro RAS-RAF binding assay (RRB), HTRF/FRET
- Format: biochemical
- Design: Biotinylated KRAS protein amino acids 1-169 (produced at Erasca); made in house
- TEST_CONDITIONS: Table 1; read-out: Inhibition of RAS-RAF Binding (in-vitro) KRAS (G12D) IC50
pIC50: −log10 of the molar value.

{"COMPOUND": "Cc1ncsc1-c1ccc([C@H](C)NC(=O)[C@@H]2C[C@@H](O)CN2C(=O)[C@@H](NC(=O)CCOCCCN2CCCC2COc2nc(N3CC4CCC(C3)N4)c3cc(Cl)c(-c4ccc(F)c5sc(N)c(C#N)c45)c(F)c3n2)C(C)(C)C)cc1 (some centres unmarked) [Example 8]", "EXPERIMENTAL_SYSTEM": "KRAS G12D (Homo sapiens, UniProt P01116, G12D)", "pIC50": 7.96}
{"COMPOUND": "Cc1ncsc1-c1ccc([C@H](C)NC(=O)[C@@H]2C[C@@H](O)CN2C(=O)[C@@H](NC(=O)CCCCN2CCC[C@H]2COc2nc(N3CC4CCC(C3)N4)c3cc(Cl)c(-c4ccc(F)c5sc(N)nc45)c(F)c3n2)C(C)(C)C)cc1 [Example 7]", "EXPERIMENTAL_SYSTEM": "KRAS G12D (Homo sapiens, UniProt P01116, G12D)", "pIC50": 7.92}
{"COMPOUND": "Cc1ncsc1-c1ccc([C@H](C)NC(=O)[C@@H]2C[C@@H](O)CN2C(=O)[C@@H](NC(=O)CCOCCCN2CCC[C@H]2COc2nc(N3CC4CCC(C3)N4)c3cc(Cl)c(-c4ccc(F)c5sc(N)nc45)c(F)c3n2)C(C)(C)C)cc1 [Example 4]", "EXPERIMENTAL_SYSTEM": "KRAS G12D (Homo sapiens, UniProt P01116, G12D)", "pIC50": 7.89}
{"COMPOUND": "Cc1cc(N)nc(-c2c(Cl)cc3c(N4CC5CCC(C4)N5)nc(OC[C@@H]4CCCN4CCCOCCC(=O)N[C@H](C(=O)N4C[C@H](O)C[C@H]4C(=O)N[C@@H](C)c4ccc(-c5scnc5C)cc4)C(C)(C)C)nc3c2F)c1C(F)(F)F [Example 1]", "EXPERIMENTAL_SYSTEM": "KRAS G12D (Homo sapiens, UniProt P01116, G12D)", "pIC50": 7.82}
{"COMPOUND": "C#Cc1c(F)ccc2cc(O)cc(-c3ncc4c(N5CC6CCC(C5)N6)nc(OC[C@@H]5CCCN5CCCOCCC(=O)N[C@H](C(=O)N5C[C@H](O)C[C@H]5C(=O)N[C@@H](C)c5ccc(-c6scnc6C)cc5)C(C)(C)C)nc4c3F)c12 [Example 13]", "EXPERIMENTAL_SYSTEM": "KRAS G12D (Homo sapiens, UniProt P01116, G12D)", "pIC50": 7.87}
{"COMPOUND": "Cc1ncsc1-c1ccc([C@H](CO)NC(=O)[C@@H]2C[C@@H](O)CN2C(=O)[C@@H](NC(=O)CCOCCCN2CCC[C@H]2COc2nc(N3CC4CCC(C3)N4)c3cc(Cl)c(-c4ccc(F)c5sc(N)c(C#N)c45)c(F)c3n2)C(C)(C)C)cc1 [Example 9]", "EXPERIMENTAL_SYSTEM": "KRAS G12D (Homo sapiens, UniProt P01116, G12D)", "pIC50": 7.86}
{"COMPOUND": "Cc1ncsc1-c1ccc([C@H](C)NC(=O)[C@@H]2C[C@@H](O)CN2C(=O)[C@@H](NC(=O)CCOCCCN2CCC[C@H]2COc2nc(N3CC4CCC(C3)N4)c3cnc(-c4cc(O)cc5cccc(F)c45)c(F)c3n2)C(C)(C)C)cc1 [Example 6]", "EXPERIMENTAL_SYSTEM": "KRAS G12D (Homo sapiens, UniProt P01116, G12D)", "pIC50": 8.02}
{"COMPOUND": "Cc1cc(N)nc(-c2c(Cl)cc3c(N4CC5CCC(C4)N5)nc(OC[C@@H]4CCCN4CCCOCCCOc4cc(-c5scnc5C)ccc4CNC(=O)[C@@H]4C[C@@H](O)CN4C(=O)[C@H](NC(=O)C4(F)CC4)C(C)(C)C)nc3c2F)c1C(F)(F)F [Example 3]", "EXPERIMENTAL_SYSTEM": "KRAS G12D (Homo sapiens, UniProt P01116, G12D)", "pIC50": 7.19}

Origin of measurements: patent US20240293558A1
